Experiment: chemical genetic growth profiling, strain panel (AID 1159580);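 further: tested at 20 µM; growth read once vehicle control cultures reached saturation at 30 °C; 1 = growth at the plate median or of vehicle wells; lower values mean less growth of the strain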
Settings: S. cerevisiae deletion strains, growth OD, locus YOR316C, strain cot1, hits give low values
About 2,000 (36%) of roughly 5,500 compounds were called active. About 18% were inconclusive and are not listed. This is one part of the list.
Listed here: items and their measured normalized growth.
# answer = number (no unit)

In: Report normalized growth for C/C=C/CC(C)C(O)C1C(=O)NC(CC)C(=O)N(C)CC(=O)N(C)C(CC(C)C)C(=O)NC(C(C)C)C(=O)N(C)C(CC(C)C)C(=O)NC(C)C(=O)NC(C)C(=O)N(C)C(CC(C)C)C(=O)N(C)C(CC(C)C)C(=O)N(C)C(C(C)C)C(=O)N1C (configuration not stated) please.
Out: 1.01

New cases:
In: Report normalized growth for CC(=O)OCC(=O)[C@@]1(O)CCC2C3C[C@H](C)C4=CC(=O)C=CC4(C)C3[C@@H](O)CC21C (some centres not stated) please.
Out: 1

* * *

Assay: chemical genetic growth profiling, strain panel (AID 1159580);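 further: tested at 20 µM; growth read once vehicle control cultures reached saturation at 30 °C; 1 = growth at the plate median or of vehicle wells; lower values mean less growth of the strain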
Details: S. cerevisiae deletion strains, growth OD, locus YHR027C, strain rpn1, hits give low values
Screen size: about 5,500 compounds; about 2,000 (36%) were called active. Roughly 18% stayed inconclusive and do not appear here. This is one part of the list.
Listed here: items and their measured normalized growth.
# answer = number (no unit)

Sample answers from the record:
In: Report normalized growth for `NC(=O)c1ccc([N+](=O)[O-])cc1Cl` please.
Out: 0.968

In: Report normalized growth for `CC[C@@]1(O)C(=O)OCc2c1cc1n(c2=O)Cc2cc3cc(O)ccc3nc2-1` please.
Out: 1

In: Report normalized growth for `NC(=O)c1cc([N+](=O)[O-])cc([N+](=O)[O-])c1` please.
Out: 0.997

New cases:
In: Report normalized growth for Oc1ccc2c3c1OC1[C@@H](O)CC[C@@]4(O)[C@@H](C2)N(CC2CCC2)CC[C@]314 (stereo partly specified) please.
Out: 0.996

In: Report normalized growth for NS(=O)(=O)c1cc2c(cc1C(F)(F)F)NC(Cc1ccccc1)NS2(=O)=O (stereo unspecified) please.
Out: 0.971

In: Report normalized growth for `CN(C)CC[C@H](c1ccc(Cl)cc1)c1ccccn1` please.
Out: 0.998

In: Report normalized growth for CC12CCC(=O)C=C1CCc1ccccc12 (stereo unspecified) please.
Out: 0.994

* * *

Test: chemical genetic growth profiling, strain panel (AID 1159580);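 further: tested at 20 µM; growth read once vehicle control cultures reached saturation at 30 °C; 1 = growth at the plate median or of vehicle wells; lower values mean less growth of the strain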
Conditions: S. cerevisiae deletion strains, growth OD, locus YFR010W, strain ubp6, hits give low values
Among all 5,500 compounds or so, about 2,000 (36%) were called active. Another 18% or so got no clear call; they are omitted. The list shows a part of the results.
Listed here: items and their measured normalized growth.
# answer = number (no unit)

Sample answers from the record:
In: Report normalized growth for `O=C(CCCN1CCN(c2ccccn2)CC1)c1ccc(F)cc1` please.
Out: 0.868

In: Report normalized growth for `C=CCSC[C@@H](N)C(=O)O` please.
Out: 0.986

In: Report normalized growth for `C=CCSSSCC=C` please.
Out: 0.956

In: Report normalized growth for CC(C)=CC1C(CO)C1(C)C (stereo not given) please.
Out: 1.03

Then this compound:
In: Report normalized growth for CC(C)(C)NCC(O)COc1cccc2c1CCCC2=O (stereo not given) please.
Out: 0.95
